Molecular target: T1, human insulin receptor isoform without exon 11 (human, UniProt P06213-2 28-1370, limits assumed)
T1 construct: also called HIR-11; HIR - 11
T1 sequence (P06213 other isoform, or with tags, fused parts or gaps limits assumed): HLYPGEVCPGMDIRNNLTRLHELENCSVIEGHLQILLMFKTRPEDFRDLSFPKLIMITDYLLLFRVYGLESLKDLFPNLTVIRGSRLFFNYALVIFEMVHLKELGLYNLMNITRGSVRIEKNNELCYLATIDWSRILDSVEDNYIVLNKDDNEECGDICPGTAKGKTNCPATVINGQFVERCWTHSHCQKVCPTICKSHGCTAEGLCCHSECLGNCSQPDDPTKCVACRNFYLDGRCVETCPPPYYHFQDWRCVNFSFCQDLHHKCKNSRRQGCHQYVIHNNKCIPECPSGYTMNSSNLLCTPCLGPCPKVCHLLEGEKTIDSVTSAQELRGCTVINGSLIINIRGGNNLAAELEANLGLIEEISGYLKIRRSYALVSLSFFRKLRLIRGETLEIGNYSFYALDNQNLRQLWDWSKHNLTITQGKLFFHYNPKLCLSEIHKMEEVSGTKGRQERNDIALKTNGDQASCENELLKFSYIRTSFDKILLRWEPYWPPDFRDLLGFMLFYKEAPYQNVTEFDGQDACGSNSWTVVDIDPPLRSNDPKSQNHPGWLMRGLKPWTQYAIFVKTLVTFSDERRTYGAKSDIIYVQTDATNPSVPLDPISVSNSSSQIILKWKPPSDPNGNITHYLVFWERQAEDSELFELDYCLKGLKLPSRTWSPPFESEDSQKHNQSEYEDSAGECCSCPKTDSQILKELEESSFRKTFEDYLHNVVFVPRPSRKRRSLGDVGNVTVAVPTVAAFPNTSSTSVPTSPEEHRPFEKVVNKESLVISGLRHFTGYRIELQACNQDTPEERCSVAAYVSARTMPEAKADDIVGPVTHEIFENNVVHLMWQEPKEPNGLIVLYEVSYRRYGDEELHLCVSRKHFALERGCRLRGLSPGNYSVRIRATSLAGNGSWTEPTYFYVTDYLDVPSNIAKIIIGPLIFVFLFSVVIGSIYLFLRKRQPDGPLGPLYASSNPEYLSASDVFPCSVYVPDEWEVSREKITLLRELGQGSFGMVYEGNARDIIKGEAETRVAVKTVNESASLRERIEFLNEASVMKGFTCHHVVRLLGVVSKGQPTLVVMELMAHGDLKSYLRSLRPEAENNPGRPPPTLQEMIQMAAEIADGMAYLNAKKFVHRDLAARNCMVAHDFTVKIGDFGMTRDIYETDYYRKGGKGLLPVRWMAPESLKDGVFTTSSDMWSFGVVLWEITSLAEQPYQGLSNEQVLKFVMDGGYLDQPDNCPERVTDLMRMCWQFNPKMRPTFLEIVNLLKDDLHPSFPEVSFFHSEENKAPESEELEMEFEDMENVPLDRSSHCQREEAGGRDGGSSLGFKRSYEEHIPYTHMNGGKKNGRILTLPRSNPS
Test: receptor binding, standard methods (FIG. 2)
Ends that are not written are not given here.
Listed here: items and their measured relative affinity.

>  <binder>
SLEEEWAQIECEVYGRGCPSVRGFQGGTVWPGYEWLRNAAKK [S626]

>  <relative affinity>
59

$$$$
>  <binder>
Ac-SLEEEWAQIQCEVWGRGCPSESFYDWFERQL (cysteine pairing not given here) [S636]

>  <relative affinity>
106

$$$$
>  <binder>
Ac-SLEEEWAQIQCEVWGRGCPSESFYDWFERQLG (cysteine pairing not given here) [S671]

>  <relative affinity>
86

$$$$

The measurements presented in this section are drawn from patent US20100298213A1.
